target: T1, Ala mutant having 3-amino acid substitution, SEQ ID NO: 48; assay: ELISA, coated peptide
T1 peptide: EENMDDQWMQDEAAAGY
measuredAttribute: OD 490/630 nm
Give the figure by itself; no unit, no explanation.

Field: example entries. Status: answers known.
G9 (antibody, V domains shown, Chicken variable regions in a mouse chimeric antibody (IgG1); also called anti-PAD4 antibody G9) VH: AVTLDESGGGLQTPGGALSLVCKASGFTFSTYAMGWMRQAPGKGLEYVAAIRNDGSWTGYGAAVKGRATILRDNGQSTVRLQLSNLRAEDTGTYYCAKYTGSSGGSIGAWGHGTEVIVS VL: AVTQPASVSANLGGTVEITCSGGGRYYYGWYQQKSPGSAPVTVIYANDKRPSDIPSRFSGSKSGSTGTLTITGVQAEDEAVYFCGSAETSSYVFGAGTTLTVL | 1.89
E9 (antibody, V domains shown, Chicken variable regions in a mouse chimeric antibody (IgG1); also called anti-PAD4 antibody E9) VH: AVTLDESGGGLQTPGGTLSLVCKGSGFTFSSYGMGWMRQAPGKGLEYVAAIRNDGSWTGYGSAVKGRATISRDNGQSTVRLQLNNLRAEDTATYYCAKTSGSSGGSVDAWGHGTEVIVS VL: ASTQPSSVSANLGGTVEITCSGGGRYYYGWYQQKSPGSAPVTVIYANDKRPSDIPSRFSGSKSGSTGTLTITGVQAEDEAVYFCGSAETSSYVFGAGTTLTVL | 1.81

Okay, next one:
What value of OD 490/630 nm has been recorded for this entry: H7 (antibody, V domains shown, Chicken variable regions in a mouse chimeric antibody (IgG1); also called anti-PAD4 antibody H7) VH: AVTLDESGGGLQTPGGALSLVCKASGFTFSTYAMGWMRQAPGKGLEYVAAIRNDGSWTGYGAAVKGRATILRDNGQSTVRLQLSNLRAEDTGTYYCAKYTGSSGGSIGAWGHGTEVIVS VL: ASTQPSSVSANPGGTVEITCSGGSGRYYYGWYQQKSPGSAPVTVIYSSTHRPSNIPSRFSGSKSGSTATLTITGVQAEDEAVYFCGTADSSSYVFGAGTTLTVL 1.87
